- protocol.details: In vivo pharmacokinetic parameter testing in mice
- Parameters: species or system ICR mice
- run.conditions: in words
endpoint.name: pharmacokinetic properties in mice compared to comparative compound 1

C=CC(=O)N1CCN(c2c(C#N)cnc3c(F)c(-c4ccc(F)c5sc(N)nc45)c(Cl)cc23)CC1 [Example 8] | significantly better
C=CC(=O)N1CCN(c2c(C#N)c(N3CC(N(C)C)C3)nc3c(F)c(-c4ccc(F)c5sc(N)nc45)c(Cl)cc23)CC1 [Example 21] | significantly better
C=CC(=O)N1C[C@@H]2C(=O)N(C)c3cnc4c(F)c(-c5ccc(F)c6sc(N)nc56)c(Cl)cc4c3N2C[C@H]1C (single isomer, unassigned) [Example 17-1] | significantly better
C=CC(=O)N1CCN(c2c(C#N)c(OC[C@@H]3CCCN3C)nc3c(F)c(-c4ccc(F)c5sc(N)nc45)c(Cl)cc23)CC1 [Example 3] | significantly better
